The reported measurements were obtained from patent US12187709B2.

# ASSAY_TARGET: Cbl-b (Homo sapiens (Human), UniProt Q13191)
# Sequence (Q13191 40-426): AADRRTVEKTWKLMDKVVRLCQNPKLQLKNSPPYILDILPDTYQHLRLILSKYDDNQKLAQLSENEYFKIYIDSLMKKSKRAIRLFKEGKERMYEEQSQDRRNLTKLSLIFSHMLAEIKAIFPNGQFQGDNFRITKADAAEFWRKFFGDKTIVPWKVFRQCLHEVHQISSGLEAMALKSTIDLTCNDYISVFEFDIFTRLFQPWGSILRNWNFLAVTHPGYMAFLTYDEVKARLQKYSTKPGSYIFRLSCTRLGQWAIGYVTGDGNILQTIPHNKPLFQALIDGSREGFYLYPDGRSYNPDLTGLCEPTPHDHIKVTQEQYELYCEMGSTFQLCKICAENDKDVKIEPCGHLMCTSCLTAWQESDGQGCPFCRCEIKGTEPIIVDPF
# ASSAY_PROTOCOL: Cbl-b LCK Ub TR-FRET assay (Cbl-b Lck HTRF)
# Assay type: biochemical
# RECORDED_CONDITIONS: ratio C-cbl Lck HTRF IC50 / Cbl-b Lck HTRF IC50
Hi there, I'd appreciate the recorded fold-selectivity (Cbl-b over C-cbl) for every entry that follows.

MOLECULE | ASSAY_TARGET | fold-selectivity (Cbl-b over C-cbl)
CO[C@H]1C[C@@](c2cccc(N3Cc4c(cccc4C(F)(F)F)C3=O)c2)(c2nncn2C)C1 [Compound 190] | Cbl-b (Homo sapiens (Human), UniProt Q13191) | 2.0x
CO[C@H]1C[C@](c2cc(C)cc(N3Cc4c(cc(CNC5(C)CCC5)cc4C(F)(F)F)C3=O)c2)(c2nncn2C)C1 [Compound 230] | Cbl-b (Homo sapiens (Human), UniProt Q13191) | 1.5x

Batch: fold-selectivity (Cbl-b over C-cbl) for all items listed.
1. Cn1cnnc1[C@]1(c2cc(OC3CCCC3)cc(N3Cc4c(cc(CNC5(C)CCC5)cc4C(F)(F)F)C3=O)c2)C[C@H](C)C1 [Compound 186]
2. CO[C@H]1C[C@](c2cc(OC(C)C)cc(N3Cc4c(cc(CNC5(C)CCC5)cc4C(F)(F)F)C3=O)c2)(c2nncn2C)C1 [Compound 207]

(A)
1. 2.9x
2. 2.2x
